- assayed system: Kit D816V (HMC1.2 cells, Kit V560G and D816V) (Homo sapiens, UniProt P10721, D816V/V560G)
- Construct: endogenous in cells
- Sequence (P10721 26-976 V560G/D816V): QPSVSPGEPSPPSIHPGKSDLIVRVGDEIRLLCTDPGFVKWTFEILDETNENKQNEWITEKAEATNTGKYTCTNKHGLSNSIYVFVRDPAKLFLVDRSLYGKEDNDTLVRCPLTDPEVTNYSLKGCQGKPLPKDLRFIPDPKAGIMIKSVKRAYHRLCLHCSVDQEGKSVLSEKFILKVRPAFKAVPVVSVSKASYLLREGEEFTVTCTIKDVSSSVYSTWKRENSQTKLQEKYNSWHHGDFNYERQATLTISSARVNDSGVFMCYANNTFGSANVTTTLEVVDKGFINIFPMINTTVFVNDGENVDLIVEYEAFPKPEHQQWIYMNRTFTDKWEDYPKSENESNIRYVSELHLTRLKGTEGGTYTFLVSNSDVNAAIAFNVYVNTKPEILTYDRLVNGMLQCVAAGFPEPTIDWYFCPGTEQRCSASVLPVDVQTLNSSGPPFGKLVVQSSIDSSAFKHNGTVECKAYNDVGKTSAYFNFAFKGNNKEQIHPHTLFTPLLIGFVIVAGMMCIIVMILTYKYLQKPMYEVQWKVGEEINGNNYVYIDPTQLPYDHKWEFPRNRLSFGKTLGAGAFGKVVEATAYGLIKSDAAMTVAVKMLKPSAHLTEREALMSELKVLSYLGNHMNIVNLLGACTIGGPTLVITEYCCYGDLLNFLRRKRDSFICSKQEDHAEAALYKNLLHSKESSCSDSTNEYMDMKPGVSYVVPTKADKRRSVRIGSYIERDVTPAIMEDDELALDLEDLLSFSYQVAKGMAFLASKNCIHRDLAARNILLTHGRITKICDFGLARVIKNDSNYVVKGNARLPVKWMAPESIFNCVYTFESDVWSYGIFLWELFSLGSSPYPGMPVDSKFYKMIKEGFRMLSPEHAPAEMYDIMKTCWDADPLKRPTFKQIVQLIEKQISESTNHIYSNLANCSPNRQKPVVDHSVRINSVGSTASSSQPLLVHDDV
- protocol notes: HMC1.2 autophosphorylation assay (AlphaLISA, phospho-Y719 c-Kit)
- condition summary: Kit autophosphorylation at tyrosine 719, 90 minutes, read-out: Cellular Activity
- Description: HMC1.2 Autophosphorylation Assay: 10,000 HMC1.2 cells were incubated in 22 ul culture media (phenol-red free IMDM, no serum) in each well of a 384-well plate and serum starved overnight in a tissue culture incubator (5% CO2, 37° C.). A 10-point dose concentration series of compound (25 uM-95.4 pM) were then added to the cells in a volume of 3.1 ul to each well (0.25% DMSO final concentration). […] Fluorescence signal was obtained on Envision (Perkin Elmer) by AlphaScreen 384 well HTS protocol. […]
observable: IC50

**Q:** Which IC50 is reported with Kit D816V (HMC1.2 cells, Kit V560G and D816V) (Homo sapiens, UniProt P10721, D816V/V560G) for this entry: "OC[C@@H](O)Cn1cc(Nc2ncnc(N3CCN(c4ncc(Cc5ccccc5)cn4)CC3)n2)cn1" ?
**A:** 10 to 100 nM

**Q:** Hello, I am looking for reported IC50 with Kit D816V (HMC1.2 cells, Kit V560G and D816V) (Homo sapiens, UniProt P10721, D816V/V560G) for "CC1(Cn2cc(Nc3ncnc(N4CCN(c5ncc(Cc6ccccc6)cn5)CC4)n3)cn2)COC1" . Could you help?
**A:** 10 to 100 nM

Source of measurements: patent US9334263B2
